Measured TGI accompanies every entry in the list below.
Test system: TK-10 renal
Experiment: NCI tumour cell line growth inhibition, 48 h
ENDPOINT: TGI

CC(=O)C1C(=O)C(=O)N(c2cccc([N+](=O)[O-])c2)C1=O (stereo unspecified) ... > 100 µM
COC(=O)c1onc(-c2c(OC)cc(OC)cc2OC)c1C(=O)OC ... > 100 µM
Cc1cc(S(=O)(=O)Nc2nc3ccccc3nc2-c2cccc([N+](=O)[O-])c2)c(S)cc1Cl ... > 100 µM
NC(CSC1c2ccccc2-c2ccccc21)C(=O)O (stereo unspecified) ... > 100 µM
CCn1c2ccccc2c2ccc3c(c21)C(=O)C=CC3=O ... 30 µM
CC(=O)CN(Cc1cc(C)c2c(c1)c1ccccc1n2Cc1ccccc1)S(=O)(=O)c1ccc(C)cc1 ... > 100 µM
C=CC[C@@H](N)C(=O)N(C)[C@@H](C)[C@@H](O)c1ccccc1 ... > 100 µM
COc1ccc(C=O)c([N+](=O)[O-])c1 ... > 100 µM
OCC1OC(n2cnc3c(N/N=C\c4ccccn4)ncnc32)C(O)C1O (stereo unspecified) ... > 100 µM
C[C@@H]1CN(Cc2ccc(F)cc2)[C@@H](C)CN1C(=O)c1cc2c(C(=O)C(=O)N(C)C)cn(C)c2cc1Cl ... > 89.7 µM
COc1cc2c(c(OC)c1)/C(=C/Sc1ccccc1)C(=O)N(C(C)(C)C)C2 ... > 100 µM
CS(=O)(=O)OCC1CN(S(C)(=O)=O)c2cc(O)ccc21 (stereo unspecified) ... 6.62 µM
COc1cc(N2C(=O)[C@H](O)C2c2ccc(SC)cc2)cc(OC)c1OC (stereo partly specified) ... > 100 µM
C/C=C1\CN2CCc3c([nH]c4ccccc34)C2CC1C(=O)OC (stereo unspecified) ... > 322 µM
O=C(NC1CCCCC1NC(c1ccccc1)(c1ccccc1)c1ccccc1)C(=O)NC1CCCCC1NC(c1ccccc1)(c1ccccc1)c1ccccc1 (stereo unspecified) ... > 100 µM
N#CC1C(=O)NC23CCCCC2C1c1ccccc1O3 (stereo unspecified) ... > 100 µM
O=C(O)c1ccc(C2COc3ccc(Cl)cc3C2)cc1 (stereo unspecified) ... > 100 µM
COc1ccc2cc1Oc1ccc(cc1)C[C@H]1c3c(cc4c(c3Oc3cc5c(cc3OC)CCN(C)[C@@H]5C2)OCO4)CCN1C ... 12.2 µM
COc1nc(=O)n(COC(CO)CN2C(=O)c3ccccc3C2=O)cc1Cc1cccc(OCc2ccccc2)c1 (stereo unspecified) ... > 100 µM
Cc1[nH]c2ccccc2c1C(=O)CC1(O)C(=O)Nc2c(Cl)cc(Cl)cc21 (stereo unspecified) ... > 100 µM
CN=c1ccc2nc3ccc(N)cc3sc-2c1 ... 32.6 µM

----------
Test system: MALME-3M melanoma
Assay: NCI tumour cell line growth inhibition, 48 h
Measured TGI accompanies every entry in the list below.
ENDPOINT: TGI

O=[N+]([O-])c1nccn1CCCNc1ccnc2cc(Cl)ccc12 ... > 57.3 µM
C=CCN1C(=O)/C(=C/c2cccs2)N=C1SC/C=C/C ... 96.6 µM
CC(=O)OC12C=C(C)C(C(C)C1)C1C(=O)N(CCN3CCOCC3)C(=O)C12 (stereo not drawn) ... > 100 µM

----------
Measured TGI accompanies every entry in the list below.
Test system: OVCAR-8 ovarian
Assay: NCI tumour cell line growth inhibition, 48 h
ENDPOINT: TGI

COC(=O)[C@@H]1[C@H](OC(C)=O)CCC2[C@@]3(C[C@@H](c4ccoc4)O[C@@H]3OC)[C@H](C)CC[C@]21C(=O)OC (stereo partly drawn) ... > 25 µM
O=C(NC1CCCCC1NC(c1ccccc1)(c1ccccc1)c1ccccc1)C(=O)NC1CCCCC1NC(c1ccccc1)(c1ccccc1)c1ccccc1 (stereo not drawn) ... > 100 µM
CN(C)c1ccc(C(Cc2ccccc2)C2NC(=S)NC2=O)cc1 (stereo not drawn) ... > 100 µM
COc1ccc(-c2cc(Cc3cccs3)c(=O)[nH]n2)cc1 ... > 100 µM
Cn1c(=O)c2[nH]c(CCNC(=O)c3ccccc3)nc2n(C)c1=O ... > 100 µM
COc1cc2c(cc1OC)C1C=NC(C2)c2cc(OC)c(OC)cc21 (stereo not drawn) ... > 100 µM
O=C(CSc1nnc(Cc2ccccc2)o1)Nc1ccccc1 ... > 100 µM
COc1c(F)c(F)c(/C(O)=C\c2nc3ccccc3[nH]c2=O)c(F)c1F ... > 10 µM
COC(=O)[C@@H]1CC(C(C[N+](=O)[O-])c2ccc(O[Si](C)(C)C(C)(C)C)cc2)C(=O)N1C(=O)OC(C)(C)C (stereo partly drawn) ... > 100 µM
CC1(C)C=Cc2c(cc(O)c3c(=O)c4cc(Cl)ccc4[nH]c23)O1 ... > 10 µM
O=C(CCCN1CCC2(CC1)CC(c1ccccc1)OC2=O)c1ccc(F)cc1 (stereo not drawn) ... > 100 µM
O=C1OC(=O)C(=C\c2ccc3c(c2)OCO3)/C1=C/c1ccc2c(c1)OCO2 ... > 100 µM
CCc1nn(CN2CCOCC2)c(=S)n1/N=C/c1ccc(-c2ccc(Cl)cc2)o1 ... > 100 µM
C/C(=N\Nc1ccc([N+](=O)[O-])cc1[N+](=O)[O-])c1sc(-n2nc(-c3ccccc3)cc2-c2ccccc2)nc1C ... > 100 µM
O=C1OC2(CC1C1(O)C3CC4CC(C3)CC1C4)C1CC3CC(C1)CC2C3 (stereo not drawn) ... > 100 µM
COc1cc(C(=O)C/C(CCC(=O)Nc2ccccc2[N+](=O)[O-])=N\NC(N)=O)ccc1O ... > 100 µM
C=CCC1(OCc2ccccc2)C(=O)C(=O)OC1C1COC(C)(C)O1 (stereo not drawn) ... > 100 µM
N#Cc1c(N2CCOCC2)nc(=S)[nH]c1-c1ccco1 ... > 100 µM

----------
Measured TGI accompanies every entry in the list below.
Tested on: A549 NSCLC
Test: NCI tumour cell line growth inhibition, 48 h
ENDPOINT: TGI

CCn1c2ccccc2c2ccc3c(c21)C(=O)C=CC3=O ... > 100 µM
CCN1C(=O)c2cc(OC)c(OC)cc2C(=O)C12OC(=O)c1cc3c(cc12)OCO3 (stereo not given) ... > 100 µM
CCN(CC)c1ccc2cc(C(=O)Nc3ccc4[nH]c(C(=O)N5C[C@@H](CCl)c6c5cc(OC(=O)Nc5ccccc5)c5[nH]cc(C)c65)cc4c3)oc2c1 ... > 1000 µM
O=c1[nH]c(=O)n(C2CC(O)C(COP(=O)(OCc3ccc([N+](=O)[O-])o3)N(CCCCCl)CC(O)CO)O2)cc1F (stereo not given) ... > 100 µM
COC(=O)[C@H](CCSC)NC(=O)N[C@H](C)c1ccccc1 ... > 100 µM

----------
Tested on: NCI-H23 lung
Assay: NCI tumour cell line growth inhibition, 48 h; in the data active means GI50 below about 0.43 µM; inactive means the rest
Outcomes: Yes = active, No = inactive

CC(=O)OC12C=C(C)C(C(C)C1)C1C(=O)N(CCN3CCOCC3)C(=O)C12 (stereo unspecified) ... No
CO/N=C(\COc1ccc2c(c1)[nH]c1ccccc12)c1ccc(F)cc1 ... No
COc1cccc(OC(=O)c2ccc(C(F)(F)F)nc2Nc2cc(Cl)ccc2C)c1 ... No
CC1=C2[C@@H](CC1)[C@]1(C)O[C@@](c3ccccc3)(C[C@H]1OC(=O)CO)[C@H]2OC(=O)/C=C/c1ccccc1 ... No
O=C1OCC2=C1C(c1ccccc1)c1cc3c(cc1N2)OCO3 (stereo unspecified) ... Yes
CCCCCCCCCCCCCCCCCC[n+]1ccc2c(C)c3c(c(C)c2c1)c1cc(O)ccc1n3CC ... No

----------
Test system: CCRF-CEM leukemia
Assay: NCI tumour cell line growth inhibition, 48 h
ENDPOINT: TGI

NC(N)=NCC[C@H](NC(=O)OCCCCCn1ccc(=O)[nH]c1=O)C(=O)O ... > 100 µM
COc1cc2c(c(OC)c1OC)-c1ccc(SC)c(=O)cc1C(NC(=O)c1ccccc1)CC2 (stereo not drawn) ... > 68.1 µM
CCCP1(=O)C=C(C)C(=C(Cl)Cl)C(C)=C1 (stereo not drawn) ... > 100 µM

----------
Measured TGI accompanies every entry in the list below.
System: NCI-H226 lung
Test: NCI tumour cell line growth inhibition, 48 h
ENDPOINT: TGI (µM)

CC(=O)Oc1cc2c(cc1OC(C)=O)OCC(c1ccccc1)C2 (stereo not drawn) ... 48.5
CCn1c2ccccc2c2ccc3c(c21)C(=O)C=CC3=O ... 32.8
N#Cc1sc2c(c1OC(=O)c1ccccc1)c(=O)n(-c1ccccc1)c(=S)n2-c1ccccc1 ... 40.8
O=C(Nc1ccc(OCc2nnc(-c3ccc(Cl)cc3)o2)c(F)c1)Nc1ccc(Cl)c(C(F)(F)F)c1 ... 13.2
